Experiment: gradient 5% acetonitrile 3 min, to 50% in 2 min, to 85% in 15 min, held 3 min, 100 µL/min
Details: column: Zorbax Extend-C18 2.1 x 50 mm; eluents: water / acetonitrile, 0.1% formic acid
ATTRIBUTE_MEASURED: RP-LC retention time (s)
Numeric answer only, unit s assumed.

In the examples that follow, each entry is paired with its recorded RP-LC retention time.
COMPOUND: CCOC(=O)N1CCN(C(=O)C2CN(c3nc4ccc(OC)cc4s3)C2)CC1
UNIT_NAME: s
VALUE_OBSERVED: 650
//
COMPOUND: O=C(c1ccco1)N1CC(Oc2cccc(-c3nc(-c4ccccc4)no3)c2)C1
UNIT_NAME: s
VALUE_OBSERVED: 1120
//
COMPOUND: COc1ccc(CNC(=O)Cn2cnc3nc(N4CCCC(C(=O)NC5CC5)C4)sc3c2=O)cc1 (configuration not stated)
UNIT_NAME: s
VALUE_OBSERVED: 655

Recorded RP-LC retention time (compound COCCN(CC(=O)N1CCc2sccc2C1COc1ccccc1F)C(=O)C(C)C (configuration not stated) ): 912

Recorded RP-LC retention time (compound O=C1[C@H]2CN(Cc3ccncc3)C[C@H]2C(=O)N1Cc1ccc2c(c1)OCO2 ): 605

Recorded RP-LC retention time (compound CC(C)N1C(=O)c2cccnc2Sc2cc(C(=O)N3CCN(C)CC3)ccc21 ): 582

Recorded RP-LC retention time (compound NC(=O)c1c(NC(=O)c2ccc(Br)s2)sc2c1CCCCC2 ): 1040

The reported measurements were obtained from the METLIN SMRT retention time set (Domingo-Almenara et al. 2019).
